The measured values listed here are drawn from the supplement of paper PMC9112550.

# System: Escherichia coli TOP10;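 note: peptides expressed intracellularly from a pBAD plasmid library in pooled LB shake-flask culture, induced with 0.3% L-arabinose, DNA abundance read by NGS, three biological replicates, DESeq2 with apeglm shrinkage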
# ASSAY_NOTES: shrunken log2 fold change of peptide-encoding DNA abundance (4.5 h post-induction vs induction); higher = less antimicrobial activity (less host growth inhibition)
# MEASUREMENT_CONDITIONS: time post-induction: 4.5 h; library: site-saturation at positions 5, 18, 19, 20
Label scheme for shrunken log2 fold change: lower than -0.06 is class 0, -0.06 and above is class 1.

# RESIDUE_CODES, ASSIGNED_CATEGORY
records = [
    ("RRIRWRPPRLPRPRPRPQVFPRP", "class 1"),
    ("RRIRRRPPRLPRPRPRPHGKPRP", "class 1"),
    ("RRIRGRPPRLPRPRPRPFGLPRP", "class 1"),
    ("RRIRYRPPRLPRPRPRPDMMPRP", "class 0"),
    ("RRIRKRPPRLPRPRPRPHVQPRP", "class 0"),
    ("RRIRRRPPRLPRPRPRPWAIPRP", "class 1"),
    ("RRIRSRPPRLPRPRPRPPAPPRP", "class 1"),
    ("RRIRARPPRLPRPRPRPDWQPRP", "class 1"),
    ("RRIRMRPPRLPRPRPRPMDEPRP", "class 1"),
    ("RRIRRRPPRLPRPRPRPKDLPRP", "class 1"),
    ("RRIRERPPRLPRPRPRPGKYPRP", "class 0"),
    ("RRIRFRPPRLPRPRPRPYMDPRP", "class 1"),
    ("RRIRSRPPRLPRPRPRPKKYPRP", "class 0"),
    ("RRIRRRPPRLPRPRPRPLEGPRP", "class 1"),
]
